- System Name: Protein Tat (Human immunodeficiency virus type 1 group M subtype B (isolate HXB2)) (UniProt P04608)
- Test: inhibitors of Tat binding to TAR RNA, dose response, counter-screen for Vif-APOBEC3G degradation inhibitor project, biochemical, fluorescence polarization, FAM-labeled TAR RNA (AID 1117361)
- Test Settings: at 100 µM (top of the series) unless noted; series mostly up to 100 µM
In all, about 3,600 compounds went through this assay and about 900 (25%) were called active. These entries were drawn from the full list. Measured potencies and affinities stand elsewhere.

>  <Compound String>
CCOC(=O)CS(=O)(=O)c1ccc2ccccc2c1

>  <outcome>
inactive

$$$$
>  <Compound String>
Cc1cc(NC(=O)c2cncc(Br)c2)no1

>  <outcome>
inactive

$$$$
>  <Compound String>
Nc1ccc(S(=O)(=O)c2cc(O)c3ccccc3c2O)cc1

>  <outcome>
inactive

$$$$
>  <Compound String>
Nc1nc(SCc2nc3scc(-c4ccccc4)c3c(=O)[nH]2)n[nH]1

>  <outcome>
inactive

$$$$
>  <Compound String>
O=C(COc1ccc(Cl)cc1)N1CCN(S(=O)(=O)c2ccc(Cl)cc2)CC1

>  <outcome>
inactive

$$$$
>  <Compound String>
CC(=O)Nc1ccc(S(=O)(=O)N2CCN(Cc3ccccn3)CC2)cc1

>  <outcome>
inactive

$$$$

----------
- System Name: Protein Tat (Human immunodeficiency virus type 1 group M subtype B (isolate HXB2)) (UniProt P04608)
- Test: inhibitors of Tat binding to TAR RNA, dose response, counter-screen for Vif-APOBEC3G degradation inhibitor project, biochemical, fluorescence polarization, FAM-labeled TAR RNA (AID 1117361)
- Test Settings: at 100 µM (top of the series) unless noted; series mostly up to 100 µM
Among all 3,600 compounds or so, about 900 (25%) were called active. The list is a sample of the results. Results with a measured potency or affinity are listed apart.

>  <Molecule>
CCN(c1cccc(C)c1)S(=O)(=O)c1cnc[nH]1

>  <outcome>
inactive

$$$$
>  <Molecule>
C[C@@H]1CCCCO[C@H](CN(C)C(=O)c2ccccc2)[C@@H](C)CN([C@H](C)CO)C(=O)c2cc(NC(=O)NC3CCCCC3)ccc2O1

>  <outcome>
inactive

$$$$
>  <Molecule>
CCn1c(SC(C)C(=O)NC2CCCc3ccccc32)nnc1-c1cccs1 (stereo not given)

>  <outcome>
inactive

$$$$
>  <Molecule>
CCOC(=O)C1CCCN(c2c(NCCN(CC)c3ccccc3)c(=O)c2=O)C1 (stereo not given)

>  <outcome>
inactive

$$$$
>  <Molecule>
CCC(=O)Nc1cc2c(cc1C(=O)CC)OCCO2

>  <outcome>
inactive

$$$$
>  <Molecule>
CCOC(=O)C1CCCN(C(=O)c2ccc3c(c2)OCO3)C1 (stereo not given)

>  <outcome>
inactive

$$$$
>  <Molecule>
CN(C)NC(=S)NC1CCS(=O)(=O)C1 (stereo not given)

>  <outcome>
inactive

$$$$
>  <Molecule>
Cc1cc(-c2ccccc2)nc(Oc2ccc(C(C)(C)C)cc2)c1S(C)(=O)=O

>  <outcome>
inactive

$$$$
>  <Molecule>
O=[N+]([O-])c1ccc(NCCCNS(=O)(=O)c2ccc(Cl)cc2)c(Cl)c1

>  <outcome>
inactive

$$$$
>  <Molecule>
COc1ccc(C2C(C#N)=C(SCC(=O)Nc3ccc(C)cc3)NC3=C2C(=O)CC(C)(C)C3)cc1 (stereo not given)

>  <outcome>
inactive

$$$$

----------
- System Name: Protein Tat (Human immunodeficiency virus type 1 group M subtype B (isolate HXB2))
- Test: inhibitors of Tat binding to TAR RNA, dose response, counter-screen for Vif-APOBEC3G degradation inhibitor project, biochemical, fluorescence polarization, FAM-labeled TAR RNA (AID 1117361)
- Test Settings: at 100 µM (top of the series) unless noted; series mostly up to 100 µM
Screen size: about 3,600 compounds; about 900 (25%) were called active. A selection follows. Entries with a potency or affinity are not part of this list.

>  <Compound>
COc1cccc(NC(=O)CSc2nnnn2C(C)C)c1

>  <System Name>
Protein Tat (Human immunodeficiency virus type 1 group M subtype B (isolate HXB2))

>  <outcome>
inactive

$$$$
>  <Compound>
COc1ccc(NC(=O)CSc2nc(C)cc(C)n2)cc1

>  <System Name>
Protein Tat (Human immunodeficiency virus type 1 group M subtype B (isolate HXB2))

>  <outcome>
inactive

$$$$
>  <Compound>
CCN(CC)S(=O)(=O)c1ccc(NC(=O)CSc2nnc(-c3cccc(OC)c3)n2C)cc1

>  <System Name>
Protein Tat (Human immunodeficiency virus type 1 group M subtype B (isolate HXB2))

>  <outcome>
inactive

$$$$
>  <Compound>
CC(=O)Nc1c(O)nc(SCC(=O)Nc2ccc(C(C)=O)cc2)[nH]c1=O

>  <System Name>
Protein Tat (Human immunodeficiency virus type 1 group M subtype B (isolate HXB2))

>  <outcome>
inactive

$$$$
>  <Compound>
CCN(CCCNC(=O)C1CCCN(S(=O)(=O)CC)C1)c1cccc(C)c1 (stereo unspecified)

>  <System Name>
Protein Tat (Human immunodeficiency virus type 1 group M subtype B (isolate HXB2))

>  <outcome>
inactive

$$$$
>  <Compound>
COc1ccccc1C=NC(CO)C(O)c1ccc([N+](=O)[O-])cc1 (stereo unspecified)

>  <System Name>
Protein Tat (Human immunodeficiency virus type 1 group M subtype B (isolate HXB2))

>  <outcome>
inactive

$$$$
>  <Compound>
CCc1ccccc1N(CC)C(=O)CCc1nc(-c2ccc(C)cc2)no1

>  <System Name>
Protein Tat (Human immunodeficiency virus type 1 group M subtype B (isolate HXB2))

>  <outcome>
inactive

$$$$
>  <Compound>
CCOC(=O)c1csc(N)c1-c1ccc([N+](=O)[O-])cc1

>  <System Name>
Protein Tat (Human immunodeficiency virus type 1 group M subtype B (isolate HXB2))

>  <outcome>
inactive

$$$$
>  <Compound>
C=CCOc1ccc(/C=C2\SC(=S)N(CCC(=O)O)C2=O)cc1

>  <System Name>
Protein Tat (Human immunodeficiency virus type 1 group M subtype B (isolate HXB2))

>  <outcome>
inactive

$$$$
>  <Compound>
COc1ccc(NC(=O)CSc2nnc(C)n2Cc2ccccc2)cc1

>  <System Name>
Protein Tat (Human immunodeficiency virus type 1 group M subtype B (isolate HXB2))

>  <outcome>
inactive

$$$$
>  <Compound>
CSc1nc(C)cc(SCC(=O)Nc2ccccc2)n1

>  <System Name>
Protein Tat (Human immunodeficiency virus type 1 group M subtype B (isolate HXB2))

>  <outcome>
inactive

$$$$

----------
- System Name: Protein Tat (Human immunodeficiency virus type 1 group M subtype B (isolate HXB2)) (UniProt P04608)
- Test: inhibitors of Tat binding to TAR RNA, dose response, counter-screen for Vif-APOBEC3G degradation inhibitor project, biochemical, fluorescence polarization, FAM-labeled TAR RNA (AID 1117361)
- Test Settings: at 100 µM (top of the series) unless noted; series mostly up to 100 µM
Screen size: about 3,600 compounds; about 900 (25%) were called active. A selection follows. Results with a measured potency or affinity are listed apart.
Readout Type: outcome

>  <Compound String>
Cc1ccc2c(c1)CCCN2C(=O)c1cc(C)c(C)s1

>  <Readout Type>
outcome

>  <Value Reported>
inactive

$$$$
>  <Compound String>
O=[N+]([O-])c1c(Nc2ccccc2O)cc(Cl)c2nonc12

>  <Readout Type>
outcome

>  <Value Reported>
inactive

$$$$
>  <Compound String>
COc1ccc(S(=O)(=O)N2CCN(C(=O)c3cc(C)on3)CC2)cc1

>  <Readout Type>
outcome

>  <Value Reported>
inactive

$$$$
>  <Compound String>
CN(CCO)c1cc(Sc2nc3ccccc3s2)c2nonc2c1[N+](=O)[O-]

>  <Readout Type>
outcome

>  <Value Reported>
inactive

$$$$
>  <Compound String>
Cc1cc(NC(=O)Cn2cnc3c(nnn3-c3cccc(F)c3)c2=O)no1

>  <Readout Type>
outcome

>  <Value Reported>
inactive

$$$$
>  <Compound String>
O=C(O)c1cc(Nc2cc(Cl)c3nonc3c2[N+](=O)[O-])ccc1O

>  <Readout Type>
outcome

>  <Value Reported>
inactive

$$$$
>  <Compound String>
Cc1nn(C(=O)c2cccnc2)c(C)c1C

>  <Readout Type>
outcome

>  <Value Reported>
inactive

$$$$
>  <Compound String>
FC(F)(F)C1=Nc2cccc3cccc(c23)N1

>  <Readout Type>
outcome

>  <Value Reported>
inactive

$$$$
>  <Compound String>
CCC(=O)OCCNc1cc(Sc2nc3ccccc3[nH]2)c2nonc2c1[N+](=O)[O-]

>  <Readout Type>
outcome

>  <Value Reported>
inactive

$$$$
>  <Compound String>
Cc1nnc(SCc2cnc(-c3ccccc3)o2)[nH]c1=O

>  <Readout Type>
outcome

>  <Value Reported>
inactive

$$$$
>  <Compound String>
COC(=O)c1cn[nH]c1NC(=S)Nc1ccc(C)cc1Cl

>  <Readout Type>
outcome

>  <Value Reported>
inactive

$$$$
